# System: murine leukemia L1210
# TEST PROTOCOL: Cytostatic activity assay, L1210
# Type: cell-based
# MEASUREMENT PARAMETERS: Mus musculus; L1210 cells, 48 h; read-out: IC50 (50% cytostatic inhibitory concentration, cell proliferation)
MEASURED PROPERTY: pIC50
Lab note: report pIC50 as minus log10 of the concentration in molar units, number only.

Need pIC50, item CCOP(=O)(COCCNC(=O)Cn1cc(F)c(=O)[nH]c1=O)OCC [18d]
4.05
